Target: T1, cynomolgus monkey IGF-I receptor (cynomolgus monkey, UniProt P08069 31-1367 (human entry))
T1 construct: Whole entry as named; expressed on HEK293T cells; also called IGF-I receptor of cynomolgus monkey; XP_005560575
T1 sequence (P08069 other isoform, or with tags, fused parts or gaps limits assumed): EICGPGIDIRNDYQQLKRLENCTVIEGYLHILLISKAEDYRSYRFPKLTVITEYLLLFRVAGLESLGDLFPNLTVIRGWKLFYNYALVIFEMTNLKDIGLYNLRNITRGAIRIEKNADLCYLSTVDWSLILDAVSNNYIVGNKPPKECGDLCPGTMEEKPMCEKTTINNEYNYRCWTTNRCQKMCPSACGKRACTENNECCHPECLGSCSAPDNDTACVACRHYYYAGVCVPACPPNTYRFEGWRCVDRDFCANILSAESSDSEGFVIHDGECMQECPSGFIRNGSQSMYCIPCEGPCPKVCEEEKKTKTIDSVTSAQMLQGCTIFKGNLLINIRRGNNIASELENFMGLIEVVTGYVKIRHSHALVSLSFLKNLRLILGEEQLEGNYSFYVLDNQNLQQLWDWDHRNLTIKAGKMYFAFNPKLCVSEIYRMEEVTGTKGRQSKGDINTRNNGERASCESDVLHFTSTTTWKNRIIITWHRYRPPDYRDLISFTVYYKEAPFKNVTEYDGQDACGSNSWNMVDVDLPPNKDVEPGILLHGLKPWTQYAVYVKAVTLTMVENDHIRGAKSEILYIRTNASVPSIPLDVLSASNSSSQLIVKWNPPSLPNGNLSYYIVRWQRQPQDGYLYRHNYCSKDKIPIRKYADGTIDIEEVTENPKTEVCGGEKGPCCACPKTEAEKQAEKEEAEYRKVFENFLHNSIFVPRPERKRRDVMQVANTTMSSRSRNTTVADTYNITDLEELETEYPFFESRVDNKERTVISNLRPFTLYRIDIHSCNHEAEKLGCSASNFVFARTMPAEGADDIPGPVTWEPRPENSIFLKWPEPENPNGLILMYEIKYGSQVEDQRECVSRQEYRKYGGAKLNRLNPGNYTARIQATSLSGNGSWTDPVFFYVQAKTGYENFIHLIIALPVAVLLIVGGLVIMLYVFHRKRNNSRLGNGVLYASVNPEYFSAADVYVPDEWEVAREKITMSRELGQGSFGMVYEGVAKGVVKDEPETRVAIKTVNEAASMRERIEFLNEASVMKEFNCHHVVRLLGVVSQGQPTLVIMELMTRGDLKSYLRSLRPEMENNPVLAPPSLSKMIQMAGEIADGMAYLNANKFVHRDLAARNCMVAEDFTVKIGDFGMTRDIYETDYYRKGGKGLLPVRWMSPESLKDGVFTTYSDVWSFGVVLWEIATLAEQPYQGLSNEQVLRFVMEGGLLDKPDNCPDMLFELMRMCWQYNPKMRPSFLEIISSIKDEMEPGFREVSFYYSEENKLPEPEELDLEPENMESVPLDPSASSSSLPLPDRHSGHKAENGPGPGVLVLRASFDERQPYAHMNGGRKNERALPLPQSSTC
Test: cell-based ELISA, 2 nM antibody on HEK293T cells expressing the receptor, A450-A650
Collected Avidity (relative to control HEK293T cells = 1) values appear next to each entry.

Any idea what its Avidity (relative to control HEK293T cells = 1) is? The binder is anti-IGF-I receptor humanized antibody R11-16C (antibody, human IgG4, V domains shown, also called R11-16C antibody; R11-16VH + R11-16VL-C36A) VH: QVQLVQPGAELVKPGASVKVSCKAPGYTFTSYWMHWVRQAPGQGLEWIGETNPSNSVTNYNEKFKSKATLTVDTSTSTVYMELSSLRSEDTAVYYCTIGRGRGFAYWGQGTLVTVSS VL: DIQMTQSPSSLSASVGDRVTITCRASQNINFWLSWAQQKPGKAPKLLIYKASNLHTGVPSRFSGSGSGTDFTFTISSLQPEDIATYYCLQGQSYPYTFGQGTKLEIK 3.3 fold of control cells

Avidity (relative to control HEK293T cells = 1) for anti-IGF-I receptor humanized antibody R11-16D (antibody, human IgG4, V domains shown, also called R11-16D antibody; R11-16VH + R11-16VL-C36S) VH: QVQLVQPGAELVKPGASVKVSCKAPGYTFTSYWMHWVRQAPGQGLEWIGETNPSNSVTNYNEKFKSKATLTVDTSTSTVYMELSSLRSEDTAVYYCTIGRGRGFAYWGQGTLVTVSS VL: DIQMTQSPSSLSASVGDRVTITCRASQNINFWLSWSQQKPGKAPKLLIYKASNLHTGVPSRFSGSGSGTDFTFTISSLQPEDIATYYCLQGQSYPYTFGQGTKLEIK ? 3.4 fold of control cells
